- System: SF-268
- TEST NAME: NCI tumour cell line growth inhibition, 48 h
Active and inactive are the calls of the source. Cut-off read from the data, not from the text of the source: active = GI50 up to about 1.1 µM and inactive = higher.
Would you mind answering with one of these outcomes? active, inactive

Recorded test outcome, item `Cc1nnc2n1N=C(c1cc(F)c(Cl)cc1Cl)/C(=C/c1ccc(Cl)cc1)S2` inactive

Could you kindly confirm the outcome this assay logged for `C(=C\c1nccs1)/c1cccc(/C=C/c2nccs2)n1` ? inactive

Which outcome was entered for the compound `CCCCCCN(CCCCCC)C(=O)Cc1c2n(c3ccccc13)Cc1ccccc1-2` in this test? inactive

Hi, sorry to bother you, what did the test record for `CC(=O)NNC(=S)N/C=C1/C(=O)Oc2ccccc2C1=O` ? inactive

Each compound tested received a call. Report the one for `Cc1c(/C=N/NC(=S)Nc2ccccc2)c(=O)n(-c2ccccc2)n1C` . inactive

Outcome logged for CN1C(c2ccccc2)CC(=Nc2ccccc2)CC1c1ccccc1 (stereo not given) in this assay: inactive

So what was the verdict on CC(C)Cc1ccc(C(C)/C=C2\CCC(CN3CCOCC3)C2=O)cc1 (stereo not given) in this test? inactive

I'd appreciate the recorded outcome for `O=C1NN(Cc2ccccc2)C(=O)N2CCC[C@@H]12` from this test. inactive

Hello, I am checking results. What call was entered for `COc1cc(/C=C2\Sc3scc(-c4cccc([N+](=O)[O-])c4)[n+]3C2=O)cc(OC)c1OC` ? inactive

Answer briefly: the call reported for `CCC/C(Cl)=N\OC(=O)Nc1ccc(OC(F)(F)F)cc1` in this assay. inactive

Please state the recorded outcome for this compound: Cc1cccc(C)c1NC(=O)C1=NC(=S)NC(c2ccccc2)C1c1nc2ccccc2s1 (stereo not given) inactive

What did this assay record as the result for `CC1(C)OC[C@@H](O)[C@H](C#N)CO1` ? inactive

For `c1ccc2c(c1)SC(=C1Sc3ccccc3S1)S2` , what call appears in the results of this test? inactive

Name the outcome recorded for O=C([O-])Cc1ccccc1.[Na+] [SODIUM PHENYLACETATE] in the assay. inactive

GET /call?item= `O=C(CSc1nc2ccc(I)cc2c(=O)n1Cc1ccccc1)N/N=C/c1ccccc1` returns the recorded outcome of this test. inactive

Please indicate how the test categorized `CSC(=S)N(C)C` . inactive

Can you look up the reported call for C=C1NC(=O)C(CC(C(=O)C(=O)Nc2c(C)cccc2C(C)(C)C)C(=O)c2ccc3ccccc3c2)C(=O)N1 (stereo not given) for me? inactive

For COC(C)(C)[C@@H](O)[C@H]1C[C@H](C)[C@@]2(CC[C@]3(C)[C@@H]2CC[C@@H]2[C@@]4(C)CC[C@@H](OC(C)=O)C(C)(C)[C@@H]4C[C@@H](OC4OC(COC(C)=O)C(O)C(O)C4O)[C@]23C)O1 (stereo not given in full) , what call appears in the results of this test? inactive

Per the assay record, what outcome was assigned to `CC[C@H]1CN2CCc3cc(OC)c(OC)cc3[C@@H]2C[C@@H]1C[C@H]1NCCc2c1[nH]c1ccc(O)cc21` ? active

# lookup: test call for `COC(=O)c1cc2c(c(C(=O)OC)c1)CCC2` inactive

* * *

- Tested on: OVCAR-3
- TEST NAME: NCI tumour cell line growth inhibition, 48 h
Calls of active or inactive are those of the source. Rule as the data show it: active = GI50 up to about 1.1 µM and inactive = higher. Square brackets hold non-standard residues; d marks the D form. Peptide text beside a SMILES is read from it.
ASSAY METRIC: GI50

// query GI50 value for entry `CC1=NN2C(c3ccc([N+](=O)[O-])cc3)=CSC2=NC(C)(C)C1` > 100 µM (inactive)

Using the record for `COC(=O)[C@](NC(=O)OCc1ccccc1)([C@@H](C)Sc1ccc(C)cc1)C(F)(F)F` , report its GI50. > 100 µM (inactive)

Any idea what its GI50 is? The molecule is `COC(=O)c1cc2c(c(C(=O)OC)c1)CCC2` 49.4 µM (inactive)

I'd like to know its GI50. The molecule in question is CC(C)C[C@H](NC(=O)[C@H](CC(C)C)NC(=O)[C@@H](Cc1c[nH]c2ccccc12)NC(=O)[C@H](Cc1ccccc1)NC(=O)[C@@H](Cc1c[nH]c2ccccc12)NC(=O)[C@H](CCC(N)=O)NC(=O)[C@@H](CCC(N)=O)NC(=O)[C@@H]1CCCN1C(=O)[C@@H](CCCCN)NC(=O)[C@H]1CCCN1C(=O)[C@H](N)CCCN=C(N)N)C(N)=O (H-[dR][dP][dK]P[dQ]Q[dW]F[dW]LL-NH2) > 86.3 µM (inactive)

What measured GI50 goes with `O=C1C=CC(=O)c2c(O)c(N3CCN(c4ccccn4)CC3)cc(O)c21` ? 4.18 µM (inactive)

Suppose we examine the molecule `Nc1cc(O)c2c(c1O)C(=O)C=CC2=O` ; what GI50 value has been reported? 2.64 µM (inactive)

Reported GI50 for `COC(=O)C(=O)CC(=O)CCn1[nH]c(=O)c(Cl)c(Cl)c1=O` : what is it? > 100 µM (inactive)

For COc1ccccc1/C=C1\CCC(CNc2ccc(Cl)cc2)C1=O (centres undefined) , what is its reported GI50? 10.2 µM (inactive)

What GI50 value was documented for this molecule, `S=c1[nH]nc(Cc2ccccc2)c(=S)[nH]1` ? > 61.7 µM (inactive)
